Tested on: Streptococcus pyogenes
Run Description: In vitro antibacterial activity against Streptococcus pyogenes A65
Assay type: functional
Reported MIC by item:
Respond with the bare value in µg/mL.

{"Molecule": "CN1CCN(c2c(F)c(N)c3c(=O)c(C(=O)O)cn(C4CC4)c3c2F)CC1", "Recorded Measurement": 0.39}
{"Molecule": "CN1CCN(c2c(F)cc3c(=O)c(C(=O)O)cn(C4CC4)c3c2F)CC1", "Recorded Measurement": 0.39}
{"Molecule": "C[C@@H]1CN(c2c(F)c(N)c3c(=O)c(C(=O)O)cn(C4CC4)c3c2F)C[C@H](C)N1", "Recorded Measurement": 0.39}
{"Molecule": "Nc1c(F)c(N2CCNC(CF)C2)c(F)c2c1c(=O)c(C(=O)O)cn2C1CC1 (stereo not given)", "Recorded Measurement": 0.2}

// moving on: another record for MIC
Record lookup: for Streptococcus pyogenes, what MIC belongs to C[C@@H]1CN(c2c(F)c(N)c3c(=O)c(C(=O)O)cn(C4CC4)c3c2F)C[C@H](C)N1C ? 0.39

* * *

Species: Mus musculus
Run Description: Oral efficacy against Streptococcus pyogenes A65 on Systemic Infections in Mice
Type: functional
// classify: if (ED50 < 10 mg/kg) 1 (yes) else 0 (no)

{"Molecule": "C[C@@H]1CN(c2c(F)cc3c(=O)c(C(=O)O)cn(C4CC4)c3c2F)C[C@H](C)N1", "Group": "1 (yes)"}
{"Molecule": "Nc1c(F)c(N2CCNCC2)c(F)c2c1c(=O)c(C(=O)O)cn2C1CC1", "Group": "0 (no)"}
{"Molecule": "C[C@@H]1CN(c2c(F)c(N)c3c(=O)c(C(=O)O)cn(C4CC4)c3c2F)C[C@H](C)N1", "Group": "1 (yes)"}
{"Molecule": "CN1CCN(c2c(F)c(N)c3c(=O)c(C(=O)O)cn(C4CC4)c3c2F)CC1", "Group": "0 (no)"}
{"Molecule": "Nc1c(F)c(N2CCNC(CF)C2)c(F)c2c1c(=O)c(C(=O)O)cn2C1CC1 (centres undefined)", "Group": "0 (no)"}
{"Molecule": "C[C@H]1CN(c2c(F)c(N)c3c(=O)c(C(=O)O)cn(C4CC4)c3c2F)CCN1", "Group": "1 (yes)"}

Dear reviewer, please state whether CC1CN(c2c(F)c(O)c3c(=O)c(C(=O)O)cn(C4CC4)c3c2F)CCN1 (centres undefined) has ED50 strictly beneath 10 mg/kg. 0 (no)

Threshold test, ED50 < 10 mg/kg: CC1COc2c(N3CCN(C)CC3)c(F)cc3c(=O)c(C(=O)O)cn1c23 (centres undefined) 0 (no)

Hello, is ED50 of the following molecule strictly smaller than 10 mg/kg? C[C@@H]1CN(c2c(F)c(N)c3c(=O)c(C(=O)O)cn(C4CC4)c3c2F)C[C@@H](C)N1 (relative stereo) 1 (yes)

* * *

# MIC annotations
System: Pseudomonas aeruginosa
Run Description: In vitro antibacterial activity against Pseudomonas aeruginosa IFO 3445
Type: functional
Answer with a number only, understood to be in µg/mL.

Tell me the measured MIC of CC1CN(c2c(F)c(F)c3c(=O)c(C(=O)O)cn(C4CC4)c3c2F)CCN1 (stereo not drawn) , please. 0.78

So what's the measured MIC for this one? O=C(O)c1cn(C2CC2)c2c(F)c(N3CCNCC3)c(F)cc2c1=O 0.2

Can you share its MIC? I mean this compound: C[C@@H]1CN(c2c(F)c(N)c3c(=O)c(C(=O)O)cn(C4CC4)c3c2F)C[C@H](C)N1C 0.78

Name the reported MIC value associated with the compound CC1CN(c2c(F)c(N)c3c(=O)c(C(=O)O)cn(C4CC4)c3c2F)CCN1 (stereo not drawn) 0.2

Data request, read-out MIC, for C[C@H]1CN(c2c(F)c(N)c3c(=O)c(C(=O)O)cn(C4CC4)c3c2F)CCN1 0.2

Which value of MIC has been reported for O=C(O)c1cn(C2CC2)c2c(F)c(N3CCNCC3)c(F)c(F)c2c1=O in the records? 0.78

Which MIC value belongs to Nc1c(F)c(N2CCNCC2)c(F)c2c1c(=O)c(C(=O)O)cn2C1CC1 ? 0.39

Any idea what its MIC is? The compound is C[C@@H]1CN(c2c(F)c(N)c3c(=O)c(C(=O)O)cn(C4CC4)c3c2F)C[C@H](C)N1 [SPARFLOXACIN] 0.39

* * *

Tested on: Staphylococcus aureus
Run Description: In vitro antibacterial activity against Staphylococcus aureus 50774
Format: functional
Experimental Endpoint: MIC (µg/mL)
Numeric answer only, unit µg/mL assumed.

{"Compound": "Nc1c(F)c(N2CCNCC2)c(F)c2c1c(=O)c(C(=O)O)cn2C1CC1", "Recorded Measurement": 0.05}

// lookup MIC for C[C@@H]1CN(c2c(F)c(N)c3c(=O)c(C(=O)O)cn(C4CC4)c3c2F)C[C@H](C)N1C 0.025

Would you mind telling me what MIC value was observed for C[C@@H]1CN(c2c(F)c(N)c3c(=O)c(C(=O)O)cn(C4CC4)c3c2F)C[C@H](C)N1 [SPARFLOXACIN] ? 0.05

Would you kindly share the measured MIC for CC1CN(c2c(F)c(Cl)c3c(=O)c(C(=O)O)cn(C4CC4)c3c2F)CCN1 (stereo unspecified) ? 0.1

Record request: MIC value, item CC1CN(c2c(F)c(F)c3c(=O)c(C(=O)O)cn(C4CC4)c3c2F)CCN1 (stereo unspecified) 0.2

Return reported MIC; argument: O=C(O)c1cn(C2CC2)c2c(F)c(N3CCNCC3)c(F)cc2c1=O 0.05

Value lookup for MIC; key = O=C(O)c1cn(C2CC2)c2cc(N3CCNCC3)c(F)cc2c1=O [CIPROFLOXACIN] 0.2

* * *

Test system: Enterococcus faecalis
Run Description: In vitro antibacterial activity against Streptococcus faecalis 2473
Type: functional
Reported MIC by item:

{"Molecule": "Nc1c(F)c(N2CCNCC2)c(F)c2c1c(=O)c(C(=O)O)cn2C1CC1", "MIC": "0.39 µg/mL"}
{"Molecule": "CC1CN(c2c(F)c(F)c3c(=O)c(C(=O)O)cn(C4CC4)c3c2F)CCN1 (centres undefined)", "MIC": "3.13 µg/mL"}
{"Molecule": "O=C(O)c1cn(C2CC2)c2c(F)c(N3CCNCC3)c(F)cc2c1=O", "MIC": "0.78 µg/mL"}

Recorded MIC for C[C@@H]1CN(c2c(F)c(N)c3c(=O)c(C(=O)O)cn(C4CC4)c3c2F)C[C@H](C)N1C , please? 0.39 µg/mL

Give its MIC value. Item: O=C(O)c1cn(C2CC2)c2c(F)c(N3CCNCC3)c(F)c(F)c2c1=O 3.13 µg/mL

Please look up its MIC: C[C@@H]1CN(c2c(F)c(N)c3c(=O)c(C(=O)O)cn(C4CC4)c3c2F)C[C@@H](C)N1 (relative stereo) 0.39 µg/mL

Give its MIC value. Item: CC1CN(c2c(F)c(N)c3c(=O)c(C(=O)O)cn(C4CC4)c3c2F)CCN1 (centres undefined) 0.39 µg/mL

Which value of MIC has been reported for O=C(O)c1cn(C2CC2)c2cc(N3CCNCC3)c(F)cc2c1=O in the records? 1.56 µg/mL

Requested read-out: MIC. Entry: C[C@@H]1CN(c2c(F)cc3c(=O)c(C(=O)O)cn(C4CC4)c3c2F)C[C@H](C)N1 1.56 µg/mL

* * *

Test system: Streptococcus pyogenes
Run Description: In vitro antibacterial activity against Streptococcus pyogenes A65
Format: functional
Listed here are molecules together with their documented MIC.
Give the value in µg/mL but do not write µg/mL after it.

Some solved cases for reference:
{"Molecule": "Nc1c(F)c(N2CCNCC2)c(F)c2c1c(=O)c(C(=O)O)cn2C1CC1", "MIC (µg/mL)": 0.2}
{"Molecule": "CC1CN(c2c(F)c(O)c3c(=O)c(C(=O)O)cn(C4CC4)c3c2F)CCN1 (configuration not stated)", "MIC (µg/mL)": 0.78}
{"Molecule": "CC1CN(c2c(F)c(Cl)c3c(=O)c(C(=O)O)cn(C4CC4)c3c2F)CCN1 (configuration not stated)", "MIC (µg/mL)": 0.78}
{"Molecule": "O=C(O)c1cn(C2CC2)c2c(F)c(N3CCNCC3)c(F)cc2c1=O", "MIC (µg/mL)": 0.2}
{"Molecule": "CC1COc2c(N3CCN(C)CC3)c(F)cc3c(=O)c(C(=O)O)cn1c23 (configuration not stated)", "MIC (µg/mL)": 0.39}
{"Molecule": "C[C@@H]1CN(c2c(F)c(N)c3c(=O)c(C(=O)O)cn(C4CC4)c3c2F)C[C@@H](C)N1 (relative stereo)", "MIC (µg/mL)": 0.39}

Using the record for C[C@H]1CN(c2c(F)c(N)c3c(=O)c(C(=O)O)cn(C4CC4)c3c2F)CCN1 , report its MIC. 0.2

So what's the measured MIC for this one? O=C(O)c1cn(C2CC2)c2c(F)c(N3CCNCC3)c(F)c(F)c2c1=O 3.13

Need MIC, item C[C@@H]1CN(c2c(F)cc3c(=O)c(C(=O)O)cn(C4CC4)c3c2F)C[C@H](C)N1 0.39

# input molecule: O=C(O)c1cn(C2CC2)c2cc(N3CCNCC3)c(F)cc2c1=O ; wanted: its MIC 0.2

Would you kindly share the measured MIC for CC1CN(c2c(F)c(N)c3c(=O)c(C(=O)O)cn(C4CC4)c3c2F)CCN1 (configuration not stated) ? 0.39

// query MIC value for entry CC1CN(c2c(F)c(F)c3c(=O)c(C(=O)O)cn(C4CC4)c3c2F)CCN1 (configuration not stated) 1.56
